Please provide measured Ki for the entries that follow.
molecular target: hCA XII (Homo sapiens, UniProt O43570); assay: CA inhibitory activity, spectrophotometric p-NPA assay; format: biochemical
Sequence (O43570 25-354): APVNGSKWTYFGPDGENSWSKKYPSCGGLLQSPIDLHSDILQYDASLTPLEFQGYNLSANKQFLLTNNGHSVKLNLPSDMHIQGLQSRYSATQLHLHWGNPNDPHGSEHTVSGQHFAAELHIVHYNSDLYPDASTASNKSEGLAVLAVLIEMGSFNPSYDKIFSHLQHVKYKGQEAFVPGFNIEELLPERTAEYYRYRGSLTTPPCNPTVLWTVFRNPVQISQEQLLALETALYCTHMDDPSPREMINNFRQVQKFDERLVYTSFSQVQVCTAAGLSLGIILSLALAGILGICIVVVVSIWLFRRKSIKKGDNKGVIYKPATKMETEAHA
Numbers only, in nM.

Here's what some known entries look like.
structure-notation	Ki (nM)
CS(=O)(=O)c1ccc(-c2nn(-c3ccc(S(N)(=O)=O)cc3)cc2C(=O)OCC(=O)Nc2ccc(S(N)(=O)=O)cc2)cc1	81
COc1ccc(-c2nn(-c3ccc(S(N)(=O)=O)cc3)cc2C(=O)OCC(=O)Nc2nnc(S(N)(=O)=O)s2)cc1	95

Moving on to the next molecule.
What does the record list as Ki for CCOC(=O)c1ccc(NC(=O)COC(=O)c2cn(-c3ccc(S(N)(=O)=O)cc3)nc2-c2ccc(C)cc2)cc1 ?
106

* * *

Please provide measured inhibition at 10 µM for the entries that follow.
system: MOLT-4; assay: NCI-60 one-dose SRB screen (Leukemia); format: cell-based; settings: Homo sapiens, single dose 10 µM, 48 h, read-out: Growth inhibition percent (GI %)

compound	study-target	inhibition at 10 µM
CCOC(=O)c1ccc(NC(=O)COC(=O)c2cn(-c3ccc(S(N)(=O)=O)cc3)nc2-c2ccc(S(C)(=O)=O)cc2)cc1 [Compound 5e]	MOLT-4	< 5%
NS(=O)(=O)c1ccc(NC(=O)COC(=O)c2cn(-c3ccc(S(N)(=O)=O)cc3)nc2-c2ccccc2)cc1 [Compound 4a]	MOLT-4	< 5%

Moving on to the next compound.
What does the record list as inhibition at 10 µM for Cc1ccc(-c2nn(-c3ccc(S(N)(=O)=O)cc3)cc2C(=O)OCC(=O)Nc2ccc(S(N)(=O)=O)cc2)cc1 [Compound 4b] ?
< 5%

* * *

Please provide measured inhibition at 10 µM for the entries that follow.
system: HCT-116; experiment: NCI-60 one-dose SRB screen (Colon Cancer); format: cell-based; conditions: Homo sapiens, single dose 10 µM, 48 h, read-out: Growth inhibition percent (GI %)

Here's what some known entries look like.
molecule	recorded-measurement
Cc1ccc(-c2nn(-c3ccc(S(N)(=O)=O)cc3)cc2-c2n[nH]c(=S)[nH]2)cc1 [Compound 11]	< 5%
Cc1ccc(-c2nn(-c3ccc(S(N)(=O)=O)cc3)cc2-c2nnc(N)s2)cc1 [Compound 10]	< 5%

Moving on to the next molecule.
What does the record list as inhibition at 10 µM for NC(=S)NNC(=O)c1cn(-c2ccc(S(N)(=O)=O)cc2)nc1-c1ccccc1 [Compound 9a] ?
< 5%

* * *

Please provide measured inhibition at 10 µM for the entries that follow.
system: SNB-19; test: NCI-60 one-dose SRB screen (CNS Cancer); assay type: cell-based; conditions: Homo sapiens, single dose 10 µM, 48 h, read-out: Growth inhibition percent (GI %)

Provide the reported inhibition at 10 µM of each entry below, same order.
1. Cc1ccc(-c2nn(-c3ccc(S(N)(=O)=O)cc3)cc2C(=O)OCC(=O)Nc2ccc(S(N)(=O)=O)cc2)cc1
2. CS(=O)(=O)c1ccc(-c2nn(-c3ccc(S(N)(=O)=O)cc3)cc2C(=O)OCC(=O)Nc2ccc(S(N)(=O)=O)cc2)cc1

1: < 5%; 2: < 5%

* * *

system: SW-620; experiment: NCI-60 one-dose SRB screen (Colon Cancer); assay type: cell-based; conditions: Homo sapiens, single dose 10 µM, 48 h, read-out: Growth inhibition percent (GI %)
Please provide measured inhibition at 10 µM for the entries that follow.

Provide the reported inhibition at 10 µM of each entry below, same order.
1. Cc1ccc(-c2nn(-c3ccc(S(N)(=O)=O)cc3)cc2C(=O)OCC(=O)Nc2nnc(S(N)(=O)=O)s2)cc1 [Compound 6b]
2. Cc1ccc(-c2nn(-c3ccc(S(N)(=O)=O)cc3)cc2C(=O)OCC(=O)Nc2ccc(S(N)(=O)=O)cc2)cc1 [Compound 4b]

1. < 5%
2. < 5%

Provide the reported inhibition at 10 µM of each entry below, same order.
1. NC(=S)NNC(=O)c1cn(-c2ccc(S(N)(=O)=O)cc2)nc1-c1ccccc1 [Compound 9a]
2. COc1ccc(-c2nn(-c3ccc(S(N)(=O)=O)cc3)cc2C(=O)OCC(=O)Nc2nnc(S(N)(=O)=O)s2)cc1 [Compound 6c]
3. COc1ccc(-c2nn(-c3ccc(S(N)(=O)=O)cc3)cc2C(=O)NNC(N)=S)cc1 [Compound 9c]

["< 5%", "< 5%", "< 5%"]

Provide the reported inhibition at 10 µM of each entry below, same order.
1. CCOC(=O)c1ccc(NC(=O)COC(=O)c2cn(-c3ccc(S(N)(=O)=O)cc3)nc2-c2ccc(C)cc2)cc1 [Compound 5b]
2. CCOC(=O)c1ccc(NC(=O)COC(=O)c2cn(-c3ccc(S(N)(=O)=O)cc3)nc2-c2ccc(OC)cc2)cc1 [Compound 5c]
3. CS(=O)(=O)c1ccc(-c2nn(-c3ccc(S(N)(=O)=O)cc3)cc2C(=O)NNC(N)=S)cc1 [Compound 9e]
4. Cc1ccc(-c2nn(-c3ccc(S(N)(=O)=O)cc3)cc2-c2nnc(N)s2)cc1 [Compound 10]

37%
7.9%
< 5%
< 5%
